# ASSAY_COMMENT: Protein binding in pooled human plasma at 10 uM incubated for 4 hrs under shaking condition by LC-MS/MS analysis
# Assay type: ADME, cell-free
# EXPERIMENTAL_CONDITIONS: read-out: PPB (converted)
Task for the reader: assign each of the following compounds its reported fraction unbound at 4 h, 10 µM.
Answer with a number only.

For this compound ( Cc1c(N2CC3CC3(N)C2)c(F)cc2c(CN)c(F)c(=O)n(C3CC3)c12 (stereo not drawn) ), measured fraction unbound at 4 h, 10 µM is 0.65

The value of fraction unbound at 4 h, 10 µM measured for the compound Cc1c(N2CC[C@@H]([C@H](C)N)C2)c(F)cc2c(CN)cc(=O)n(C3CC3)c12 turned out to be 0.83

Recorded fraction unbound at 4 h, 10 µM (compound Cc1c(N2CC[C@@H]([C@H](C)N)C2)c(F)cc2ccc(=O)n(C3CC3)c12 ): 0.1
